# targetOfAssay: T1, human MSLN-R3-his protein (human, UniProt Q13421 487-598)
# T1 construct: it is put last here; also called human MSLN-R3 protein; hMSLN-R3-his; not shown: His tag
# T1 sequence (Q13421 495-606): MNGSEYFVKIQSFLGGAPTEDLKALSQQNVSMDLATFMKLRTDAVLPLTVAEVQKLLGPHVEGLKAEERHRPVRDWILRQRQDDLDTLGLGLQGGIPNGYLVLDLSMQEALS
# test: ELISA on coated antigen, antibody 200 nM
quantityName: log10 of OD450 (log10 of the value in OD)
Kindly note that the scale is log10 and the underlying OD450 is in OD.

Solved cases below.
- binder: "S009-F7.18.10 (antibody, human IgG1, kappa, V domains shown, Human-murine chimeric antibody, human IgG1 heavy and kappa light constant regions) VH: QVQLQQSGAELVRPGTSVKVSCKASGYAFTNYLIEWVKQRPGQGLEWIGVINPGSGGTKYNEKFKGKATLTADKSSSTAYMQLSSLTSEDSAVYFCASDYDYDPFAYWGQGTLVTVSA VL: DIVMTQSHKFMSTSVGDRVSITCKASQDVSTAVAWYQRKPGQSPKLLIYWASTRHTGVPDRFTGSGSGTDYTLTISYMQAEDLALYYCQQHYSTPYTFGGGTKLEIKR"
  quantityName: "log10 of OD450"
  numericResult: -0.54
- binder: "S009-F7.66.12 (antibody, human IgG1, kappa, V domains shown, Human-murine chimeric antibody, human IgG1 heavy and kappa light constant regions) VH: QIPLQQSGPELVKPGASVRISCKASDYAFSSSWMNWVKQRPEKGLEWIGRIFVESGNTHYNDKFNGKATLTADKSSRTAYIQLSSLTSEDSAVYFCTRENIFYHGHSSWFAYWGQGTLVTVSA VL: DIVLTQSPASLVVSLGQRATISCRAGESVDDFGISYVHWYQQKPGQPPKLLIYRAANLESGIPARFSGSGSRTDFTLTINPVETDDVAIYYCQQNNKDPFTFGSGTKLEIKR"
  quantityName: "log10 of OD450"
  numericResult: 0.41
- binder: "S009-F7.30.5 (antibody, human IgG1, kappa, V domains shown, Human-murine chimeric antibody, human IgG1 heavy and kappa light constant regions) VH: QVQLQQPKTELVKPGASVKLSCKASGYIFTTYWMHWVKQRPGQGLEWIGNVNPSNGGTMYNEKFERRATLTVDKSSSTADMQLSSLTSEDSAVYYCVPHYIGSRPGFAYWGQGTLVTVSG VL: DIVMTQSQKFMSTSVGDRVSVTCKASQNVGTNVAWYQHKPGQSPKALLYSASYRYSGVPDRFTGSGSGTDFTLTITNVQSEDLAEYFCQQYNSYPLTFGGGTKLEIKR"
  quantityName: "log10 of OD450"
  numericResult: 0.43
- binder: "S009-F7.12.13 (antibody, human IgG1, kappa, V domains shown, Human-murine chimeric antibody, human IgG1 heavy and kappa light constant regions) VH: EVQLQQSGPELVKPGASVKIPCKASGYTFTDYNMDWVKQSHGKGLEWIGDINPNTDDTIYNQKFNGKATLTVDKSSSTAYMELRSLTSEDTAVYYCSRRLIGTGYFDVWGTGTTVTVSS VL: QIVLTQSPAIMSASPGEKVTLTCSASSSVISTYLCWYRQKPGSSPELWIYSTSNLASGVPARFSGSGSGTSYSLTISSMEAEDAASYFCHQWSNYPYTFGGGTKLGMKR"
  quantityName: "log10 of OD450"
  numericResult: 0.47

Q: Which measured log10 of OD450 value corresponds to S009-F7.21.16 (antibody, human IgG1, kappa, V domains shown, Human-murine chimeric antibody, human IgG1 heavy and kappa light constant regions) VH: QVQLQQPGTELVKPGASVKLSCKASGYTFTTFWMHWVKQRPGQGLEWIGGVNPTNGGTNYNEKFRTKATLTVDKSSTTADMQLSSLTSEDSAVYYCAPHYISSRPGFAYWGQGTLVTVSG VL: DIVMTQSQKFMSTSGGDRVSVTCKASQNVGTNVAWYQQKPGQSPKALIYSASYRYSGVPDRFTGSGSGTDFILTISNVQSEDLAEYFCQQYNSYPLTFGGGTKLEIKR ?
Result: 0.47
